Measured target: Human M4 (Homo sapiens)
Method: mAChR M4 cell-based functional assay (calcium flux, antagonism of EC80 acetylcholine response)
Particulars: M4/Gqi5/CHO-K1 cells; concentration-dependent decrease of the response elicited by an EC80 concentration of acetylcholine
Quick reference for log10(IC50) among some compounds
Note: values are log10 of IC50 expressed in nM.

For orientation, consider the following solved cases.
[2H]C([2H])(C1CCOCC1)N1C[C@H]2C[C@H](Nc3ccc(-c4cc(F)c(C(N)=O)c(F)c4F)nn3)C[C@H]2C1 | 0.80
CNC(=O)c1ccc(-c2ccc(N[C@H]3C[C@@H]4CN(CC5CCOCC5)C[C@@H]4C3)nn2)cc1 | 0.08
CC(=O)Nc1ccc(-c2ccc(N[C@H]3C[C@@H]4CN(Cc5cc(C)n(C)n5)C[C@@H]4C3)nn2)cc1 | 3.36
O=C(Nc1ccc(-c2ccc(N[C@H]3C[C@@H]4CN(CC5CCOCC5)C[C@@H]4C3)nn2)cc1)C1CC1 | 0.83
[2H]C([2H])(C1CCOCC1)N1C[C@H]2C[C@H](Nc3ccc(-c4ccccc4C(=O)NC)nn3)C[C@H]2C1 | 1.87

Okay, next one:
Need log10(IC50), item [2H]C([2H])([2H])NC(=O)c1ccc(-c2ccc(N[C@H]3C[C@@H]4CN(CC5CCOCC5)C[C@@H]4C3)nn2)cc1 (single isomer, unassigned) 1.00

----------
Measured target: Human M4 (Homo sapiens, UniProt P08173)
Construct: expressed in transfected cells; host or cells: CHO-K1 (ATCC), co-transfected with chimeric G protein Gqi5
Method: mAChR M4 cell-based functional assay (calcium flux, antagonism of EC80 acetylcholine response)
Particulars: M4/Gqi5/CHO-K1 cells; % ACh maximum at 30 μM; read-out: Human M4 Emin (% ACh maximum at 30 μM)
Recorded metric: remaining activity at 30 µM

Need remaining activity at 30 µM, item [2H]C([2H])(C1CCOCC1)N1C[C@H]2C[C@H](Nc3ccc(-c4cc(F)c(C(N)=O)c(F)c4F)nn3)C[C@H]2C1 5%

What about this molecule? [2H]C([2H])(C1CCOCC1)N1C[C@H]2C[C@H](Nc3ccc(-c4ccccc4C(=O)NCC)nn3)C[C@H]2C1 6%

What about this molecule? [2H]C([2H])(C1CCOCC1)N1C[C@H]2C[C@H](Nc3ccc(-c4ccc(NC(=O)CC)cc4)nn3)C[C@H]2C1 3%

----------
Quick reference for remaining activity at 30 µM among some molecules
Measured target: Human M4 (Homo sapiens)
Construct: expressed in transfected cells; host or cells: CHO-K1 (ATCC), co-transfected with chimeric G protein Gqi5
Method: mAChR M4 cell-based functional assay (calcium flux, antagonism of EC80 acetylcholine response)
Particulars: M4/Gqi5/CHO-K1 cells; % ACh maximum at 30 μM; read-out: Human M4 Emin (% ACh maximum at 30 μM)
Method: Human or rat M4 cDNA, along with the chimeric G protein Gqi5, were transfected into Chinese hamster ovary (CHO-K1) cells purchased from the American Type Culture Collection using Lipofectamine2000. […] Calcium flux was measured using the Functional Drug Screening System (FDSS) 6000 or 7000 (Hamamatsu Corporation, Tokyo, Japan) as an increase in the fluorescent static ratio. […] Agonist activity was analyzed as a concentration-dependent increase in calcium mobilization upon compound addition. […]
Give the quantity in %, number only.

[2H]C([2H])(C1CCOCC1)N1C[C@H]2C[C@H](Nc3ccc(-c4cc(F)c(C(=O)NC)c(F)c4F)nn3)C[C@H]2C1 | 4
CC(=O)Nc1ccc(-c2ccc(N[C@H]3C[C@@H]4CN(Cc5ccccc5F)C[C@@H]4C3)nn2)cc1 | 4
[2H]C([2H])([2H])C(=O)Nc1cccc(-c2ccc(N[C@H]3C[C@@H]4CN(C([2H])([2H])C5CCOCC5)C[C@@H]4C3)nn2)c1 | 3
CCC(=O)Nc1ccc(-c2ccc(N[C@H]3C[C@@H]4CN(CC5CCOCC5)C[C@@H]4C3)nn2)cc1 | 3
[2H]C([2H])(C1CCOC(C)(C)C1)N1C[C@H]2C[C@H](Nc3ccc(-c4cccc(C(=O)NC)c4)nn3)C[C@H]2C1 (stereo partly drawn) | 3

Okay, next one:
Need remaining activity at 30 µM, item [2H]C([2H])(C1CCOCC1)N1C[C@H]2C[C@H](Nc3ccc(-c4cccc(NC(=O)C5CC5)c4)nn3)C[C@H]2C1 3

----------
Measured target: Human M4 (Homo sapiens)
Sequence (P08173 1-479): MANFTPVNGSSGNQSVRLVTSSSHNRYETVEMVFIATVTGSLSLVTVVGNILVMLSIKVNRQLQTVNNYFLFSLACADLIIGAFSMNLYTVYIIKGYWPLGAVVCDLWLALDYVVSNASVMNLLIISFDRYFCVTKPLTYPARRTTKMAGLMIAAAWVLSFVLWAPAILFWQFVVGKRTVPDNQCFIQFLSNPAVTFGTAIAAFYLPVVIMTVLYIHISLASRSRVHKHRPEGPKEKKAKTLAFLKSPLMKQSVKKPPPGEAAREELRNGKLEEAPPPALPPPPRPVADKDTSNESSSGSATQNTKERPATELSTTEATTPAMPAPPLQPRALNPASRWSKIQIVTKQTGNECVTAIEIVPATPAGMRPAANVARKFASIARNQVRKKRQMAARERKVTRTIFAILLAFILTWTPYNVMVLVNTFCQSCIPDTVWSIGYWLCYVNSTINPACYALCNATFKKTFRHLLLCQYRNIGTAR
Method: mAChR M4 cell-based functional assay (calcium flux, antagonism of EC80 acetylcholine response)
Particulars: M4/Gqi5/CHO-K1 cells; concentration-dependent decrease of the response elicited by an EC80 concentration of acetylcholine
Recorded metric: pIC50
pIC50 here is simply -log10 of the concentration when that concentration is written in mol/L.

For orientation, consider the following solved cases.
CC(=O)Nc1ccc(-c2ccc(N[C@H]3C[C@@H]4CN(Cc5cccc(F)c5)C[C@@H]4C3)nn2)cc1 [Compound A2] | 7.29
[2H]C([2H])(C1CCOCC1)N1C[C@H]2C[C@H](Nc3ccc(-c4cc(F)c(C(=O)N(C)C)c(F)c4F)nn3)C[C@H]2C1 [Compound A67] | 7.96

Okay, next one:
Need pIC50, item [2H]C([2H])([C@H]1CCCCO1)N1C[C@H]2C[C@H](Nc3ccc(-c4cccc(C(=O)NC)c4)nn3)C[C@H]2C1 [Compound A81] 9.39

----------
Quick reference for remaining activity at 30 µM among some molecules
Measured target: Human M4 (Homo sapiens, UniProt P08173)
Construct: expressed in transfected cells; host or cells: CHO-K1 (ATCC), co-transfected with chimeric G protein Gqi5
Method: mAChR M4 cell-based functional assay (calcium flux, antagonism of EC80 acetylcholine response)
Particulars: CHO-K1, read-out: Human M4 Emin (% ACh maximum at 30 μM)
Give the quantity in %, number only.

Need remaining activity at 30 µM, item [2H]C([2H])(C1CCOCC1)N1C[C@H]2C[C@H](Nc3ccc(-c4cc(F)c(C(=O)N(C)C)c(F)c4F)nn3)C[C@H]2C1 4

What about this molecule? [2H]C([2H])([2H])NC(=O)c1ccc(-c2ccc(N[C@H]3C[C@@H]4CN(C([2H])([2H])C5CCOCC5)C[C@@H]4C3)nn2)cc1 (single isomer, unassigned) 3

What about this molecule? O=C(Nc1cc(F)c(F)c(-c2ccc(N[C@H]3C[C@@H]4CN(CC5CCOCC5)C[C@@H]4C3)nn2)c1)C(F)F 4

What about this molecule? O=C(NC12CC(C1)C2)c1cc(F)c(F)c(-c2ccc(N[C@H]3C[C@@H]4CN(CC5CCOCC5)C[C@@H]4C3)nn2)c1 3

What about this molecule? [2H]C([2H])(C1CCOCC1)N1C[C@H]2C[C@H](Nc3ccc(-c4cccc(C(=O)NC)c4)nn3)C[C@H]2C1 (single isomer, unassigned) 14

What about this molecule? CS(=O)(=O)CC(=O)Nc1cccc(-c2ccc(N[C@H]3C[C@@H]4CN(CC5CCOCC5)C[C@@H]4C3)nn2)c1 3

What about this molecule? O=C(c1ccc(-c2ccc(N[C@H]3C[C@@H]4CN(CC5CCOCC5)C[C@@H]4C3)nn2)cc1)N1CCCC1 4

What about this molecule? CC(=O)Nc1ccc(-c2ccc(N[C@H]3C[C@@H]4CN(Cc5ccccn5)C[C@@H]4C3)nn2)cc1 5

----------
Quick reference for remaining activity at 30 µM among some compounds
Measured target: Human M4 (Homo sapiens, UniProt P08173)
Construct: expressed in transfected cells; host or cells: CHO-K1 (ATCC), co-transfected with chimeric G protein Gqi5
Sequence (P08173 1-479): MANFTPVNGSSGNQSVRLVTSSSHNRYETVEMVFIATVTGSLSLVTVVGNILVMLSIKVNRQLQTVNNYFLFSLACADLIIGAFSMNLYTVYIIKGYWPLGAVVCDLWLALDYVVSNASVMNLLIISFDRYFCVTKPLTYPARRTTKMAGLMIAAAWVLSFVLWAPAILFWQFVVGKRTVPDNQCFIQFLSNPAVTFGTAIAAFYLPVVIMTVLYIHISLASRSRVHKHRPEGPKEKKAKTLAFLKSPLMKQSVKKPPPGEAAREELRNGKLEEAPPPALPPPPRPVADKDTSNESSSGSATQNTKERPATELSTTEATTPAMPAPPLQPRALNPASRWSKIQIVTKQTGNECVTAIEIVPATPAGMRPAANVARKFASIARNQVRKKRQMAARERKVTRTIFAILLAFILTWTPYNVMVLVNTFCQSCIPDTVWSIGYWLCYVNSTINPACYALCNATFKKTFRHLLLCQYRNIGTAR
Method: mAChR M4 cell-based functional assay (calcium flux, antagonism of EC80 acetylcholine response)
Particulars: M4/Gqi5/CHO-K1 cells; % ACh maximum at 30 μM; read-out: Human M4 Emin (% ACh maximum at 30 μM)
Don't forget the unit after the number, please.

Need remaining activity at 30 µM, item O=C(NC1CC1)c1ccc(-c2ccc(N[C@H]3C[C@@H]4CN(CC5CCOCC5)C[C@@H]4C3)nn2)cc1 3%

What about this compound? [2H]C([2H])([2H])NC(=O)c1cccc(-c2ccc(N[C@H]3C[C@@H]4CN(C([2H])([2H])C5CCOCC5)C[C@@H]4C3)nn2)c1 (single isomer, unassigned) 3%

What about this compound? O=C(c1ccc(-c2ccc(N[C@H]3C[C@@H]4CN(CC5CCOCC5)C[C@@H]4C3)nn2)cc1)N1CCC(O)C1 (stereo partly drawn) 4%
